tested on: male VICs; conditions: male VICs on stiff gels, n = 3 gels
In this section we review reported CC25 (percent cytotoxicity) values for a set of molecules.
Outcome measure: CC25 (percent cytotoxicity) (µM)

[[record]]
molecule = "Fc1ccc(Cl)cc1-c1nc(Nc2ccncc2)c2nccnc2n1 [SD-208]"
outcome_measure = "CC25 (percent cytotoxicity)"
u = "µM"
experimental_result = 58.9

[[record]]
molecule = "NS(=O)(=O)Oc1ccc2c3c(c(=O)oc2c1)CCCCC3 [Irosustat]"
outcome_measure = "CC25 (percent cytotoxicity)"
u = "µM"
experimental_result = 125

[[record]]
molecule = "Cc1cncc2cccc(S(=O)(=O)N3CCCNC[C@@H]3C)c12 [Combination H1152]"
outcome_measure = "CC25 (percent cytotoxicity)"
u = "µM"
experimental_result = 6.27

[[record]]
molecule = "O=C(COCC(=O)Nc1ccc(Cl)cc1C(=O)O)Nc1cccc(-c2ccoc2)c1 [TM5441]"
outcome_measure = "CC25 (percent cytotoxicity)"
u = "µM"
experimental_result = 51.3

